Cited source for all entries: patent US20210040204A1

Biological target: T1, human Claudin-1 (human, UniProt O95832 1-211)
T1 construct: whole, on cells; also called CLDN1; human CLDN1
T1 sequence (looked up): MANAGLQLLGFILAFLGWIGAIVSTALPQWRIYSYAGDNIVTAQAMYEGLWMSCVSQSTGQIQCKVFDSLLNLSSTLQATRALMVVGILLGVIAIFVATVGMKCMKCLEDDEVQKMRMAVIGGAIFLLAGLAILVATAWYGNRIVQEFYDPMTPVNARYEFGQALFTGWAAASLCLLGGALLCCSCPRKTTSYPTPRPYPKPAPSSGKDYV
Assay: flow cytometry on Huh7.5.1 and HepG2 cells with surface CLDN1 (FIG. 2A)
READOUT TYPE: binding result

binder="humanized anti-CLDN1 mAb H3L1 (antibody, V domains shown, Full-length antibody made in CHO cells; variable domains fused to the constant domains of human IgG4 heavy and human kappa light chains) VH: QVQLVESGGGVVQPGRSLRLSCLGSGFSFSSYGMNWVRQAPGKGLEWVASISPSGSYFYYADSVKGRFTISRDNSKNTLYLQMTSLRAEDTAIYYCARLPGFNPPFDHWGQGTLVTVSS VL: DIQMTQSPATLSVSPGERATLSCKASQNVGGNVDWYQWKPGQAPRLLIYGASNRYTGIPARFRGSGSGTEFTLTISSLQSEDFAVYYCLQYKNNPWTFGQGTKVEIK" val=binds
binder="humanized anti-CLDN1 mAb H1L3 (antibody, V domains shown, Full-length antibody made in CHO cells; variable domains fused to the constant domains of human IgG4 heavy and human kappa light chains) VH: EVQLVESGGGLVKPGGSLRLSCAASGFSFSSYGMNWVRQAPGKGLEWVSSISPSGSYFYYADSVKGRFTISRDNAKNSLYLQMNSLRAEDTAVYYCARLPGFNPPFDHWGQGTLVTVSS VL: DIQMTQSPSSLSASVGDRVTITCKASQNVGGNVDWYQWKPGKAPKLLIYGASNRYTGVPDRFRGSGSGTDFTLTISSLQPEDVATYYCLQYKNNPWTFGGGTKVEIK" val=binds
binder="humanized anti-CLDN1 mAb H1L2 (antibody, V domains shown, Full-length antibody made in CHO cells; variable domains fused to the constant domains of human IgG4 heavy and human kappa light chains) VH: EVQLVESGGGLVKPGGSLRLSCAASGFSFSSYGMNWVRQAPGKGLEWVSSISPSGSYFYYADSVKGRFTISRDNAKNSLYLQMNSLRAEDTAVYYCARLPGFNPPFDHWGQGTLVTVSS VL: DIQMTQSPSSLSASVGDRVTITCKASQNVGGNVDWYQWKPGKAPKLLIYGASNRYTGVPSRFRGSGSGTDFTLTISSLQPEDVATYYCLQYKNNPWTFGQGTKVEIK" val=binds
